Value source: patent US20050197331A1

Tested on: rat paw injected with Zymosan
test_protocol: Zymosan-induced paw oedema in rats
Assay type: in vivo
assay_conditions: os, 0-6 hours, dose reducing volume increase by 30%
property_measured: Anti-inflammatory activity (oedema) ED30 (mg/kg)
Output spec: scalar in mg/kg, unitless text.

Exam item: Could you share which Anti-inflammatory activity (oedema) ED30 value was measured for CC(=N)Nc1ccc2[nH]c(-c3ccccc3)cc2c1 ?
Marked response: 39.4

----------
System: rat paw injected with Zymosan
test_protocol: Zymosan-induced paw oedema in rats
Format: in vivo
assay_conditions: os, 0-6 hours, dose reducing volume increase by 30%
Anti-inflammatory activity (oedema) ED30 reference

// worked examples, Anti-inflammatory activity (oedema) ED30 included
molecule: CC(=N)Nc1ccc2nc(-c3ccccc3)sc2c1
Anti-inflammatory activity (oedema) ED30: 12.6 mg/kg

molecule: CC(=N)Nc1ccc2oc(-c3ccccc3)cc2c1
Anti-inflammatory activity (oedema) ED30: 20.8 mg/kg

Now for a further molecule.
Exam item: Could you share which Anti-inflammatory activity (oedema) ED30 value was measured for Cc1ccc(-c2cc(C(F)(F)F)nn2-c2ccc(S(N)(=O)=O)cc2)cc1 [Celecoxib, reference compound] ?
Marked response: 79.4 mg/kg
